- Experimental Target: BTK (human) (UniProt Q06187)
- Sequence (Q06187 whole entry, looked up): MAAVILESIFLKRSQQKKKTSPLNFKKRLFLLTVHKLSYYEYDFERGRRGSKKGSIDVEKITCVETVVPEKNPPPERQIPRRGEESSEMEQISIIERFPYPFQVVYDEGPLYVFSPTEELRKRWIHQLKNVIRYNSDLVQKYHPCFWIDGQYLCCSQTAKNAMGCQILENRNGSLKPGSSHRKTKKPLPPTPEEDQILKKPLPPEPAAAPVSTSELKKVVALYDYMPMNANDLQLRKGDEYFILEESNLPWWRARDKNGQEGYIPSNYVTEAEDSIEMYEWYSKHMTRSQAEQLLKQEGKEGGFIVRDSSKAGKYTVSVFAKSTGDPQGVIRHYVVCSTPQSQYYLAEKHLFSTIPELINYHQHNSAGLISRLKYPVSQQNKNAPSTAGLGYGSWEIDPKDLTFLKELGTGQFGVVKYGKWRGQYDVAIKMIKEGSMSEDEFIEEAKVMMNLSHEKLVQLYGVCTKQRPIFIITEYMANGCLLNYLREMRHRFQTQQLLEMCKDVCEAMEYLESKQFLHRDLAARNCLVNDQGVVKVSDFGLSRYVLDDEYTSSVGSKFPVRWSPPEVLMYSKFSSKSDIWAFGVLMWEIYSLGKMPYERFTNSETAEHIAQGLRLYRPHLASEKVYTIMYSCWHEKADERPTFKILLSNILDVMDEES
- Experiment Summary: KINOMEscan competition binding
- Study Conditions: compound 10.0 µM
Measurement Name: kinase still bound, per cent of control (%)

>>> df
                                 mol_smiles  units  readout_number
0  O=c1cc(N2CCOCC2)oc2c(-c3cccc4c3sc3ccccc34)cccc12      %             100
1  CCN(CC)CCCCNc1ncc2c(n1)N(C)C(=O)N(c1c(Cl)c(OC)cc(OC)c1Cl)C2      %             100
2  COc1cc(C(=O)N2CCC(N3CCN(C)CC3)CC2)ccc1Nc1ncc2c(n1)N(C)c1ccccc1C(=O)N2C      %             100
3  COc1cc(N2CCN(C)CC2)ccc1Nc1ncc2c(n1)N(C)c1ccccc1C(=O)N2C      %             100
4  COc1cc2ncn(-c3cc(OCc4ccccc4C(F)(F)F)c(C(N)=O)s3)c2cc1OC      %              86
5  COCC(=O)NC/C=C/c1ccc2ncnc(Nc3ccc(Oc4ccc(C)nc4)c(C)c3)c2c1      %              68
6  N#CCNC(=O)c1ccc(-c2ccnc(Nc3ccc(N4CCOCC4)cc3)n2)cc1      %              75
7  COc1ccc(N(C(=O)Oc2c(C)cccc2C)c2ccnc(Nc3ccc(N4CCN(C)CC4)cc3)n2)c(OC)c1      %             1.3
8  CN(C)C/C=C/C(=O)Nc1ccc(C(=O)Nc2cccc(Nc3nccc(-c4cccnc4)n3)c2)cc1      %              71

---

- Experimental Target: UniProt O15146
- Sequence (O15146 whole entry, looked up): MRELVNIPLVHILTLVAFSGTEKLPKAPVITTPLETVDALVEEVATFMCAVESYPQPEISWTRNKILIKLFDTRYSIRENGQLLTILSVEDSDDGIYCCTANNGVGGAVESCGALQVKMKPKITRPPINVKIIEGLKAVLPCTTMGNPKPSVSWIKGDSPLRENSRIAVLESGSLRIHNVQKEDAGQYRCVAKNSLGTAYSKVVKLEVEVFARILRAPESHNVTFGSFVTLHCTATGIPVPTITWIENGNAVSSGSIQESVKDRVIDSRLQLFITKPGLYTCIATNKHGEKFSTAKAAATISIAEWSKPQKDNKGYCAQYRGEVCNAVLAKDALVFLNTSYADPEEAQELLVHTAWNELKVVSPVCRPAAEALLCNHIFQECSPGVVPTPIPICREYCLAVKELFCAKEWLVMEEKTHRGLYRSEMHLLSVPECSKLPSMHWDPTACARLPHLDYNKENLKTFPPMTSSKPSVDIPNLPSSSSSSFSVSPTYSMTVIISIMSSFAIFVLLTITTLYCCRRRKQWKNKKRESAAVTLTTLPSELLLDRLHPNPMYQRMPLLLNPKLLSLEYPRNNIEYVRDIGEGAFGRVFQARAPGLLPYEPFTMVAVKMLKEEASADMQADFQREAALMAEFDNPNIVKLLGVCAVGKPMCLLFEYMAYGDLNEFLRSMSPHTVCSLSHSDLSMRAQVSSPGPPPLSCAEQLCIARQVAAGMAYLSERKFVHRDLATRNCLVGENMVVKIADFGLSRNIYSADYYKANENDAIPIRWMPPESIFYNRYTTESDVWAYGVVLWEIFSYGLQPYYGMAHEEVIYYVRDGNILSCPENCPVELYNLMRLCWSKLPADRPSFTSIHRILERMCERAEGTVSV
- Experiment Summary: KINOMEscan competition binding
- Study Conditions: compound 10.0 µM
Some compounds, each annotated with its measured kinase still bound, per cent of control.
Measurement Name: kinase still bound, per cent of control (%)

>>> print(df.to_string())
                                 mol_smiles                         measurement_name  readout_number
0  O=C(Nc1cccc(Nc2ncc(Br)c(NCCc3cnc[nH]3)n2)c1)N1CCCC1  kinase still bound, per cent of control             9.4
1  NC(=O)Nc1cc(-c2cccc(F)c2)sc1C(=O)N[C@@H]1CCCNC1  kinase still bound, per cent of control              18
2  CNC(=O)c1ccc(Nc2cc(Nc3ccccc3S(=O)(=O)C(C)C)c3cc[nH]c3n2)nc1  kinase still bound, per cent of control            0.95
3  N#CCNC(=O)c1ccc(-c2ccnc(Nc3ccc(N4CCOCC4)cc3)n2)cc1  kinase still bound, per cent of control             100
4  CS(=O)(=O)N1CCN(Cc2cc3nc(-c4cccc5[nH]ncc45)nc(N4CCOCC4)c3s2)CC1  kinase still bound, per cent of control             100
5  COc1cc2ncnc(-n3nc(-c4ccccn4)nc3N)c2cc1OC  kinase still bound, per cent of control              71
6  Cc1n[nH]c2ccc(-c3cncc(OC[C@@H](N)Cc4c[nH]c5ccccc45)c3)cc12  kinase still bound, per cent of control             100
7  C[C@@H](Oc1cc(-c2cnn(C3CCNCC3)c2)cnc1N)c1c(Cl)ccc(F)c1Cl  kinase still bound, per cent of control             0.3
8  COc1ccc(N(C(=O)Oc2c(C)cccc2C)c2ccnc(Nc3ccc(N4CCN(C)CC4)cc3)n2)c(OC)c1  kinase still bound, per cent of control              43

---

- Experimental Target: UniProt:P57078
- Sequence (P57078 whole entry, looked up): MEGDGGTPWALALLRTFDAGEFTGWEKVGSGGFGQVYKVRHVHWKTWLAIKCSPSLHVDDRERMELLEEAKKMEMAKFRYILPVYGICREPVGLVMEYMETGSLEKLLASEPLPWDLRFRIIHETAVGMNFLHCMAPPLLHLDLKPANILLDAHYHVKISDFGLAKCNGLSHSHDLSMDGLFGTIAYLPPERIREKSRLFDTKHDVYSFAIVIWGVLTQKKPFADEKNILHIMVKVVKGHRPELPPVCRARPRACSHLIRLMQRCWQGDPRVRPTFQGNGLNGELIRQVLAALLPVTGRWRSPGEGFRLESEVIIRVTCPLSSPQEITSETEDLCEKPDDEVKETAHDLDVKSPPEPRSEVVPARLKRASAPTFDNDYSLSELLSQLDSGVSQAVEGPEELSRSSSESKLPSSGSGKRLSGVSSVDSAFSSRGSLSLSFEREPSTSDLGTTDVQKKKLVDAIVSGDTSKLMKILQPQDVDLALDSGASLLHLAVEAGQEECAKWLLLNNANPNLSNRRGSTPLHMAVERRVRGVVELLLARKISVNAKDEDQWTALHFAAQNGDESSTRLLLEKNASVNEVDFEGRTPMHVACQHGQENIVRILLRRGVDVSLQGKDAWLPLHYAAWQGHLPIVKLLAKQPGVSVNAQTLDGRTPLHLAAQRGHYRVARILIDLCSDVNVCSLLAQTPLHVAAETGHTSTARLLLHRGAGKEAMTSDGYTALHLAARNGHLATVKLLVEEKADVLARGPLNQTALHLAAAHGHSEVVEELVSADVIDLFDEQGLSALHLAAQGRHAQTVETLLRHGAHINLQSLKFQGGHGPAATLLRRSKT
- Experiment Summary: KINOMEscan competition binding
- Study Conditions: compound 10.0 µM
Measurement Name: kinase still bound, per cent of control (%)

                                 mol_smiles  experimental_target                         measurement_name  readout_number
0  CCN(CC)CCCCNc1ncc2c(n1)N(C)C(=O)N(c1c(Cl)c(OC)cc(OC)c1Cl)C2       UniProt:P57078  kinase still bound, per cent of control             100
1  COc1cc2ncn(-c3cc(OCc4ccccc4C(F)(F)F)c(C(N)=O)s3)c2cc1OC       UniProt:P57078  kinase still bound, per cent of control             100
2  O=C(Nc1cccc(Nc2ncc(Br)c(NCCc3cnc[nH]3)n2)c1)N1CCCC1       UniProt:P57078  kinase still bound, per cent of control             0.3
3  CCN1CCN(C(=O)Cc2ccc(Nc3ncc(F)c(Nc4ccc(C(=O)Nc5ccccc5Cl)cc4)n3)cc2)CC1       UniProt:P57078  kinase still bound, per cent of control              31

---

- Experimental Target: WEE2 (human)
- Experiment Summary: KINOMEscan competition binding
- Study Conditions: compound 10.0 µM
# kinase still bound, per cent of control per entry
Measurement Name: kinase still bound, per cent of control (%)

In [3]: df
Out[3]:
                                 mol_smiles  experimental_target  readout_number
0  NC(=O)Nc1cc(-c2cccc(F)c2)sc1C(=O)N[C@@H]1CCCNC1         WEE2 (human)              91
1  C[C@@H](Oc1cc(-c2cnn(C3CCNCC3)c2)cnc1N)c1c(Cl)ccc(F)c1Cl         WEE2 (human)             100
2  O=C(Nc1cccc(Nc2ncc(Br)c(NCCc3cnc[nH]3)n2)c1)N1CCCC1         WEE2 (human)              36

---

- Experimental Target: BMPR1B (human) (UniProt O00238)
- Sequence (O00238 whole entry, looked up): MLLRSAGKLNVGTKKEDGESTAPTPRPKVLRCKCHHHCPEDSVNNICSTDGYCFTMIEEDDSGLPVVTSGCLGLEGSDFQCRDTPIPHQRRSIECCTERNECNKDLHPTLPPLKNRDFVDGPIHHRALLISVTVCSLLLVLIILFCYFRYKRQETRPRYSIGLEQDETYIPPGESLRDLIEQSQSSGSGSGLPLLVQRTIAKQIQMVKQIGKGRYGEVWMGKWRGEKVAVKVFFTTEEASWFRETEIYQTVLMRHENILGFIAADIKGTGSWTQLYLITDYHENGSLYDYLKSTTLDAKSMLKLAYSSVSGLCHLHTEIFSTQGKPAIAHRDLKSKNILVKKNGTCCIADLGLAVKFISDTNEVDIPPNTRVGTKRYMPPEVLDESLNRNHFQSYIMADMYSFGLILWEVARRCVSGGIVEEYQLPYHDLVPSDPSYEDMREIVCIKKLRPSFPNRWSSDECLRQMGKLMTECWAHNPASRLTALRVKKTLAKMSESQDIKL
- Experiment Summary: KINOMEscan competition binding
- Study Conditions: compound 10.0 µM
kinase still bound, per cent of control strictly under 70% means met; at 70% or over means not met.

>>> print(df.to_string())
                                  mol_smiles  label_value
 0  CNC(=O)c1ccc(Nc2cc(Nc3ccccc3S(=O)(=O)C(C)C)c3cc[nH]c3n2)nc1          met
 1  O=C1NC(=O)/C(=C/c2ccc3nccc(-c4ccncc4)c3c2)S1          met
 2  CCN(CC)CCCCNc1ncc2c(n1)N(C)C(=O)N(c1c(Cl)c(OC)cc(OC)c1Cl)C2      not met
 3  COCC(=O)NC/C=C/c1ccc2ncnc(Nc3ccc(Oc4ccc(C)nc4)c(C)c3)c2c1      not met
 4  C=CC(=O)Nc1ccc(CN(C(=O)Nc2c(Cl)c(OC)cc(OC)c2Cl)c2cc(Nc3ccc(N4CCN(C)CC4)cc3)ncn2)cc1      not met
 5  O=c1cc(N2CCOCC2)oc2c(-c3cccc4c3sc3ccccc34)cccc12          met
 6  Cc1n[nH]c2ccc(-c3cncc(OC[C@@H](N)Cc4c[nH]c5ccccc45)c3)cc12      not met
 7  C=CC(=O)Nc1cc(-n2c(=O)ccc3cnc4ccc(-c5cn[nH]c5)cc4c32)ccc1C      not met
 8  COc1ccc(N(C(=O)Oc2c(C)cccc2C)c2ccnc(Nc3ccc(N4CCN(C)CC4)cc3)n2)c(OC)c1      not met
 9  CNC(=O)c1cc(Oc2ccc(NC(=O)Nc3ccc(Cl)c(C(F)(F)F)c3)cc2)ccn1      not met
10  COc1cc(N2CCN(C)CC2)ccc1Nc1ncc2c(n1)N(C)c1ccccc1C(=O)N2C      not met
11  C[C@@H](Oc1cc(-c2cnn(C3CCNCC3)c2)cnc1N)c1c(Cl)ccc(F)c1Cl          met
12  N#CCNC(=O)c1ccc(-c2ccnc(Nc3ccc(N4CCOCC4)cc3)n2)cc1      not met
13  CCN1CCN(C(=O)Cc2ccc(Nc3ncc(F)c(Nc4ccc(C(=O)Nc5ccccc5Cl)cc4)n3)cc2)CC1          met
14  CS(=O)(=O)N1CCN(Cc2cc3nc(-c4cccc5[nH]ncc45)nc(N4CCOCC4)c3s2)CC1      not met
15  O=C(Nc1cccc(Nc2ncc(Br)c(NCCc3cnc[nH]3)n2)c1)N1CCCC1          met
16  COc1cc(C(=O)N2CCC(N3CCN(C)CC3)CC2)ccc1Nc1ncc2c(n1)N(C)c1ccccc1C(=O)N2C      not met
17  CN(C)C/C=C/C(=O)Nc1ccc(C(=O)Nc2cccc(Nc3nccc(-c4cccnc4)n3)c2)cc1          met
18  COc1cc2ncn(-c3cc(OCc4ccccc4C(F)(F)F)c(C(N)=O)s3)c2cc1OC          met
19  NC(=O)Nc1cc(-c2cccc(F)c2)sc1C(=O)N[C@@H]1CCCNC1          met

---

- Test system: EGFR (human), P00533 [752-759 del]
- Sequence (P00533 whole entry, looked up, stated change not applied): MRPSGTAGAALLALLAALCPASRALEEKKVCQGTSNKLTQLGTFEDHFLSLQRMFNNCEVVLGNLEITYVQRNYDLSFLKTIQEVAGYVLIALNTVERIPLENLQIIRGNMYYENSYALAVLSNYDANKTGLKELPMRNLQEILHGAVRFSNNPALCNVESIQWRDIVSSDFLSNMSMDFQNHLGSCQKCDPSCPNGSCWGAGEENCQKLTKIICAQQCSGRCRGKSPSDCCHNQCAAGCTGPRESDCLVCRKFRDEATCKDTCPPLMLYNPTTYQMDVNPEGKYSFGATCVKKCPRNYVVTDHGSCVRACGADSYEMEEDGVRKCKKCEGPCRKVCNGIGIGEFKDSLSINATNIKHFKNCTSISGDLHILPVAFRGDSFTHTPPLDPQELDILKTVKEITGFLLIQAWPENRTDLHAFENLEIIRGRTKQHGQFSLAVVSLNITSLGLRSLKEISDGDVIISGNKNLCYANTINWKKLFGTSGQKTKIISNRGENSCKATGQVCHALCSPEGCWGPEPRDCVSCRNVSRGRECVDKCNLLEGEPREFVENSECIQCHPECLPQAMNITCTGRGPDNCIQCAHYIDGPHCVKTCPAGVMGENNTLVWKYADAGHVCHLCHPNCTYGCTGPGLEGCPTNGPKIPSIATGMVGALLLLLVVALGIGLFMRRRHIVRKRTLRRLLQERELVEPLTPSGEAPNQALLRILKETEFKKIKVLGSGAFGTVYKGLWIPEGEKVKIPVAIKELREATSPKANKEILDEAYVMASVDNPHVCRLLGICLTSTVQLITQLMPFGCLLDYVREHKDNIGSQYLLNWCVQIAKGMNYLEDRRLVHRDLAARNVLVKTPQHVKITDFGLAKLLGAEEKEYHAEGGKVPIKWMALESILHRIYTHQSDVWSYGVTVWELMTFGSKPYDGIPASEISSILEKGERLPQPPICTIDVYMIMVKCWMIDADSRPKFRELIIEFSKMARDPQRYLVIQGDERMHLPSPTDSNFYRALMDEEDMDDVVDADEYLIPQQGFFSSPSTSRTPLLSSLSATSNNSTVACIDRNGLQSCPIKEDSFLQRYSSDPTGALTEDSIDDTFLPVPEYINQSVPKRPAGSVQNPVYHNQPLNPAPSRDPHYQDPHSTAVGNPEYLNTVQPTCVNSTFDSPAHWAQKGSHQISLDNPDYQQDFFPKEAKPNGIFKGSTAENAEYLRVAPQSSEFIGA
- Experiment Summary: KINOMEscan competition binding
- Study Conditions: compound 10.0 µM
The molecules listed here are annotated with their kinase still bound, per cent of control.
Measurement Name: kinase still bound, per cent of control (%)

                                 mol_smiles                 experimental_target  readout_number
0  CCN(CC)CCCCNc1ncc2c(n1)N(C)C(=O)N(c1c(Cl)c(OC)cc(OC)c1Cl)C2  EGFR (human), P00533 [752-759 del]             100
1  CCCS(=O)(=O)Nc1ccc(F)c(C(=O)c2c[nH]c3ncc(-c4ccc(Cl)cc4)cc23)c1F  EGFR (human), P00533 [752-759 del]              71
2  Cc1cc([C@@H](C)Nc2ccccc2C(=O)O)c2nc(N3CCOCC3)cc(=O)n2c1  EGFR (human), P00533 [752-759 del]             100
3  COc1ccc(N(C(=O)Oc2cc(C(=O)Nc3cccc(C(F)(F)F)c3)ccc2C)c2ccnc(Nc3ccc(N4CCN(C)CC4)cc3)n2)c(OC)c1  EGFR (human), P00533 [752-759 del]             0.9
4  N#CCNC(=O)c1ccc(-c2ccnc(Nc3ccc(N4CCOCC4)cc3)n2)cc1  EGFR (human), P00533 [752-759 del]              72

src = the kinase profiling compilation of Christmann-Franck et al. (2016)
